// reported EC50 per item
# study-target: human TPOR (Homo sapiens, UniProt P40238)
# Sequence (P40238 26-635): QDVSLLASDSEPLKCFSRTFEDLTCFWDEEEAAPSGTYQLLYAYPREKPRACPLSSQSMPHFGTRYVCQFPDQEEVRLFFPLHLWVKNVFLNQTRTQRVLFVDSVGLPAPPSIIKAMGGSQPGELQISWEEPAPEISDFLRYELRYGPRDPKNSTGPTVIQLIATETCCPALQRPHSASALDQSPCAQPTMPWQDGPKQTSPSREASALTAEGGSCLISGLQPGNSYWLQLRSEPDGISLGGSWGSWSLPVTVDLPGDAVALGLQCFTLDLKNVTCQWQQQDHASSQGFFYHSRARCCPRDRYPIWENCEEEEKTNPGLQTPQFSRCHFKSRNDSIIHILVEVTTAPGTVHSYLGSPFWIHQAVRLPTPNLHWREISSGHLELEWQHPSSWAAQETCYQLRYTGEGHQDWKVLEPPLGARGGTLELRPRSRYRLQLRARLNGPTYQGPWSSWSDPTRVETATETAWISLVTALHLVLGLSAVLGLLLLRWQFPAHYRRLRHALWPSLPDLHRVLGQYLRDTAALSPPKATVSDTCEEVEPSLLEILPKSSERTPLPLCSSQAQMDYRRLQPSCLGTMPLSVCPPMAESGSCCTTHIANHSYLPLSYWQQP
# assay-overview: Proliferation of BAF3/TPOR cells (MTS method, OD490)
# experimental-context: BAF3 cells stably expressing human TPOR, cultured with compound 24 h
result-type: EC50 (nM)

[
  {
    "compound": "O=C(Nc1nc(-c2cc(Cl)cs2)c(N2CC3CCN(C4CCC4)C3C2)s1)c1cnc(N2CCC(C(=O)O)CC2)c(Cl)c1 (centres unmarked)",
    "result-type": "EC50",
    "numeric-result": 0.21
  },
  {
    "compound": "C/C(=C\\c1c(Cl)cc(C(=O)Nc2nc(-c3cc(Cl)cs3)c(N3C[C@@H]4CCN(C5[C@H]6C[C@@H]7C[C@@H](C[C@H]5C7)C6)[C@@H]4C3)s2)cc1Cl)C(=O)O (some centres unmarked)",
    "result-type": "EC50",
    "numeric-result": 0.13
  },
  {
    "compound": "C/C(=C\\c1c(Cl)cc(C(=O)Nc2nc(-c3cc(Cl)cs3)c(N3CC4CCN(C5C[C@H]6CC[C@@H]5C6)C4C3)s2)cc1Cl)C(=O)O (some centres unmarked)",
    "result-type": "EC50",
    "numeric-result": 0.59
  },
  {
    "compound": "C/C(=C\\c1c(Cl)cc(C(=O)Nc2nc(-c3cccc(C(F)(F)F)c3)c(N3CC4CCN(C5CCCCC5)C4C3)s2)cc1Cl)C(=O)O (centres unmarked)",
    "result-type": "EC50",
    "numeric-result": 0.57
  },
  {
    "compound": "O=C(Nc1nc(-c2cc(Cl)cs2)c(N2CC3CCN(C4[C@H]5C[C@@H]6C[C@@H](C[C@H]4C6)C5)C3C2)s1)c1cnc(N2CCC(C(=O)O)CC2)c(Cl)c1 (some centres unmarked)",
    "result-type": "EC50",
    "numeric-result": 0.1
  }
]
